- study system: UniProtKB P08183
- measurement notes: Inhibition of human MDR1 expressed in MDCK cells assessed as calcein AM accumulation after 30 mins by fluorescence assay
- Format: cell-based
- particulars: read-out: pIC50 (converted)
measurement kind: IC50 (nM)

COc1cc(C(=O)Nc2cc(-c3ccccc3)ccc2[N+](=O)[O-])cc(OC)c1OC = 570

1: COc1cc(C(=O)Nc2ccc(-c3cccc(C(C)=O)c3)cc2[N+](=O)[O-])cc(OC)c1OC
2: COc1cc(C(=O)Nc2ccc(-c3cc(OC)c(OC)c(OC)c3)cc2[N+](=O)[O-])cc(OC)c1OC
3: COc1cc(C(=O)Nc2ccc(-c3ccc4c(c3)OCO4)cc2[N+](=O)[O-])cc(OC)c1OC
Task: # ascending order, key=IC50 Give me the labels in the order the question wants.
Result: 3, 1, 2

----------
- study system: ATP-dependent translocase ABCB1 (Homo sapiens, UniProt P08183)
- Sequence (P08183 whole entry): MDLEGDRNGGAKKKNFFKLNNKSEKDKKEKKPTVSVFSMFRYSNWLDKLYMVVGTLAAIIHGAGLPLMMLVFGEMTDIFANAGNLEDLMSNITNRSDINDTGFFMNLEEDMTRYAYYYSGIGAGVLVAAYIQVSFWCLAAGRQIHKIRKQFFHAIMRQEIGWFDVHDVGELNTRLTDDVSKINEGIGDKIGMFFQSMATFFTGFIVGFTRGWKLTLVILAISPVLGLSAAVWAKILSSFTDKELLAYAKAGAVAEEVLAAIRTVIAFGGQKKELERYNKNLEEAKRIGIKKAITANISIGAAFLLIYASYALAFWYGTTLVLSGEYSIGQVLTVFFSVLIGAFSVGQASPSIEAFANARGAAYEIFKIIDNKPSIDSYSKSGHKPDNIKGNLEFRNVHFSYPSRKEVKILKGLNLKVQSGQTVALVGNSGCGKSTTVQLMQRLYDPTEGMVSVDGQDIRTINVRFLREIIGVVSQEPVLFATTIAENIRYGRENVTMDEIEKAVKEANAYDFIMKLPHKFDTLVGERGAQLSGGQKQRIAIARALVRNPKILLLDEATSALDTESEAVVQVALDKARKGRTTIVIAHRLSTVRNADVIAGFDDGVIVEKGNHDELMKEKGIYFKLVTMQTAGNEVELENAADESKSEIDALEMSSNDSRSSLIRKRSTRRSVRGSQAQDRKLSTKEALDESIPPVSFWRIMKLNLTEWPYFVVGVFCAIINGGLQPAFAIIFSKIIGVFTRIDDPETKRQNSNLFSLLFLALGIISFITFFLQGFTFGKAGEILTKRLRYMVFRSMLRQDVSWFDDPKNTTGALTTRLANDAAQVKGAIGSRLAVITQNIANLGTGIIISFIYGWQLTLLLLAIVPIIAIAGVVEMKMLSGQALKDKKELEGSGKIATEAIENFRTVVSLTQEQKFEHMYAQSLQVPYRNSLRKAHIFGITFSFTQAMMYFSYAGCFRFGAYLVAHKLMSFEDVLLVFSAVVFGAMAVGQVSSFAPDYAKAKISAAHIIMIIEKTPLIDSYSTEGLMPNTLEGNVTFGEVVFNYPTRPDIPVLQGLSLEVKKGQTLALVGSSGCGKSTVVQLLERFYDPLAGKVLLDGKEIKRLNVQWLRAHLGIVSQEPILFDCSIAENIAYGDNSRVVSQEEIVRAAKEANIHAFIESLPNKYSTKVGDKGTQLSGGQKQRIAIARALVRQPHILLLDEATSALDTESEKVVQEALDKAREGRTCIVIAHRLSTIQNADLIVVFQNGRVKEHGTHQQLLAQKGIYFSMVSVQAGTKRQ
- measurement notes: Inhibition of human MDR1 expressed in MDCK cells assessed as calcein AM accumulation after 30 mins by fluorescence assay
- Assay type: cell-based
- particulars: read-out: IC50
measurement kind: IC50 (µM)

Some solved cases for reference:
COc1cc(C(=O)Nc2ccc(-c3ccc4c(c3)OCO4)cc2[N+](=O)[O-])cc(OC)c1OC = 0.2
COc1cc(C(=O)Nc2cc(-c3ccccc3)ccc2[N+](=O)[O-])cc(OC)c1OC = 0.57

P: COc1cc(C(=O)Nc2cc(-c3ccccc3)ccc2[N+](=O)[O-])cc(O)c1O
Q: COc1cc(C(=O)Nc2ccc(-c3ccccc3)cc2N)cc(OC)c1OC
R: COc1cc(C(=O)Nc2ccc(-c3cc(O)c(O)c(OC)c3)cc2[N+](=O)[O-])cc(O)c1O
S: COc1cc(C(=O)Nc2ccc(Br)cc2)cc(OC)c1OC
T: COc1ccc(C(=O)Nc2ccc(-c3ccccc3)cc2[N+](=O)[O-])cc1OC
Task: # ascending order, key=IC50 Give me the labels in the order the question wants.
Result: T, R, Q, S, P

----------
- study system: ATP-dependent translocase ABCB1 (Homo sapiens, UniProt P08183)
- measurement notes: Inhibition of human MDR1 expressed in MDCK cells assessed as calcein AM accumulation after 30 mins by fluorescence assay
- Assay type: cell-based
- particulars: read-out: IC50
pIC50: −log10 of the molar value.
measurement kind: pIC50

COc1ccc(NC(=O)c2cc(O)c(O)c(OC)c2)c([N+](=O)[O-])c1 = 4.19

A: COc1cc(C(=O)Nc2ccc(-c3cccc([N+](=O)[O-])c3)cc2)cc(O)c1O
B: COc1cc(CNc2ccc(-c3ccccc3)cc2[N+](=O)[O-])cc(O)c1O
C: COc1cc(C(=O)Nc2ccc(-c3cccc(C(C)=O)c3)cc2[N+](=O)[O-])cc(O)c1O
D: COc1cc(C(=O)Nc2ccc(-c3cccc([N+](=O)[O-])c3)cc2[N+](=O)[O-])cc(OC)c1OC
E: COc1cc(NC(=O)c2ccc(-c3ccccc3)cc2[N+](=O)[O-])cc(OC)c1OC
Task: Please rank these compounds by pIC50 in descending order. Give me the labels in the order the question wants.
Result: D, E, C, A, B
(D: 6.40, E: 5.70, C: 5.04, A: 4.49, B: 4.14)
